Measured values drawn from patent US6489337B1 for this set.

Recorded Ki values (UniProt:Q9Y5N1) are given below.
Sequence (Q9Y5N1 whole entry): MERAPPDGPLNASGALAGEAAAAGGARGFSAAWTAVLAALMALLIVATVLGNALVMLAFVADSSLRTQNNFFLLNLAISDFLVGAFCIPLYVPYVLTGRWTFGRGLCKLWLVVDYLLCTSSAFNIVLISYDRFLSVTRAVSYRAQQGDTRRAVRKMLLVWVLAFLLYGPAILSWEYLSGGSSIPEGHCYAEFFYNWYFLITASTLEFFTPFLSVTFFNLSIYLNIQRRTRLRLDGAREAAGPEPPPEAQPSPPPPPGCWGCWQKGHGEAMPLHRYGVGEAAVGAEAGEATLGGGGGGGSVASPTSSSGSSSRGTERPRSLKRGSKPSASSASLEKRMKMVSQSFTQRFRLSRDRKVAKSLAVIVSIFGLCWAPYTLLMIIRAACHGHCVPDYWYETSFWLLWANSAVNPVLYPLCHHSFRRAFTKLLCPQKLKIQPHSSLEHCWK
READOUT: Ki (nM)

>  <SMILES REPRESENTATION>
Cc1cccn2cc(-c3ccc(OCCCN(C)C)cc3)nc12

>  <READOUT>
Ki

>  <UNIT ANNOTATION>
nM

>  <REPORTED VALUE>
14

$$$$
>  <SMILES REPRESENTATION>
CCN(CC)CCOc1ccc(-c2cn3cccc(C)c3n2)cc1

>  <READOUT>
Ki

>  <UNIT ANNOTATION>
nM

>  <REPORTED VALUE>
15

$$$$
>  <SMILES REPRESENTATION>
CCCCN(CCCC)CCCOc1ccc(C(=O)c2cn3ccc(C)cc3n2)cc1

>  <READOUT>
Ki

>  <UNIT ANNOTATION>
nM

>  <REPORTED VALUE>
70

$$$$

[a] CCCCN(CCCC)CCCOc1ccc(C(=O)c2cn3cccc(C)c3n2)cc1
[b] CCCCN(CCCC)CCCOc1ccc(-c2nc3c(C)cccn3c2C)cc1
Kindly identify the item with the lower Ki figure among these two: a and b Indicate which entry you chose by stating its label.
b
(b: 327 nM, a: 500 nM)

###

Structures can show the parent of a compound that is named as a salt.
READOUT: melting point

Example entries begin here.
>  <MOLECULE>
CCCCN(CCCC)CCCOc1ccc(-c2cn3cccc(C)c3n2)cc1 (as salt: HCl)

>  <REPORTED VALUE>
214 to 217 °C

$$$$
>  <MOLECULE>
CCCCN(CCCC)CCCOc1ccc(C(=O)c2cn3cccc(C)c3n2)cc1 (as salt: HCl)

>  <REPORTED VALUE>
159 to 161 °C

$$$$
>  <MOLECULE>
CCCCN(CCCC)CCCOc1ccc(-c2cn3ccccc3n2)cc1 (as salt: HCl)

>  <REPORTED VALUE>
179 to 183 °C

$$$$

// next item, melting point requested
# input molecule: CCCCN(CCCC)CCCOc1ccc(-c2nc3c(C)cccn3c2C)cc1 (as salt: HCl) ; wanted: its melting point
202 to 204 °C
